The entries below come with measured Kd values attached.
Biological target: (NVDP)3(NANP)2 (Plasmodium falciparum)
Assay: BLI, target on sensor
The response must be a number in nM with no trailing unit.

These solved cases illustrate the format of a correct answer.
Input: // lookup Kd for AB-007054 (antibody, V domains shown) VH: QMQLVESGGGVVQPGRSLRLSCTASGFTFSTYAMHWVRQSPGQGLQWVAVISYHSTNKYYEDSVRGRFTISRDNSKNTLYLQMNSLRAEDTAVYYCARDGYASSFFDFWGQGTLVTVSS VL: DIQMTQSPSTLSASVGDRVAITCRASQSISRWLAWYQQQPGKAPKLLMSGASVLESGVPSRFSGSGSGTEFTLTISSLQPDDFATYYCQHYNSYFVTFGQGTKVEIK
Output: 10.2

Input: // lookup Kd for AB-007071 (antibody, V domains shown) VH: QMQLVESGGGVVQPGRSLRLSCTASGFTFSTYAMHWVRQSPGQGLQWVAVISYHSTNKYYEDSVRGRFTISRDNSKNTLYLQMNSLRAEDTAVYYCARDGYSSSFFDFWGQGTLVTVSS VL: DIQMTQSPSTLSASVGDRVAITCRASQSISRWLAWYQQQPGKAPKLLMSGASSLESGVPSRFSGSGSGTEFTLTISSLQPDDFATYYCQHYNSYFVTFGQGTKVEIK
Output: 11

Turning now to a further record.
Input: // lookup Kd for AB-007046 (antibody, V domains shown) VH: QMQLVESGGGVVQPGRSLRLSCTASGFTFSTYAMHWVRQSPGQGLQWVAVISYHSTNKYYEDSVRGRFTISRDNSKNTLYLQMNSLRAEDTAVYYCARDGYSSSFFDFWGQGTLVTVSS VL: DIQMTQSPSTLSASVGDRVAITCRASQSISRWLAWYQQQPGKAPKLLMSGASVLESGVPSRFSGSGSGTEFTLTISSLQPDDFATYYCQHYYSYFVTFGQGTKVEIK
Output: 11.6

Origin of values: patent US20220195023A1
